# PROTOCOL_DESCRIPTION: Novel Modifiers of Survival Motor Neuron (SMN) Protein: Gene Identification via Genome-wide siRNA Screen;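 further: luminescence tracks full-length SMN protein made from the SMN2 reporter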
# SETTINGS: HEK293T SMN2-luciferase reporter, siRNA knockdown, 72 h; actives lie on both sides
Screen size: about 31,000 sequences; about 1,400 (4.5%) were called active.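 How the source made its calls: active means median seed-adjusted z-score above 1 or below -1; inactive means the rest.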 The sample as a whole holds a higher share of actives than the screen did.
Please answer using one outcome listed in active, inactive

Could you please tell me the result logged for CAACUGUUAUCAGAACGAUTT against ARFIP2 in this assay?
inactive

# lookup: test call for AAUGCAUUGUGAACCCAUUTT against GNGT2
inactive

Short answer needed: outcome of this test for GGACCUAUUCGUCAAAUCATT against SF3B14 ?
active

Hi, do you know how GAUGCAAACUAGUCCUGAATT against MLC1 came out in this test?
inactive

Each sequence tested received a call. Report the one for CUUGGAUACAGAUACGUUUTT against TLK1 .
inactive

Entry GGAUGCAGAACGACGUGAATT against SLC25A10 : call = ?
inactive

Hey, what did the test say about AGAAAGGUUUUACUACAAUTT against POLR2C ?
active

Any idea what this test logged for CAUUAGCAGAUAUACUAUUTT against EEF1E1 ?
active

So what was the verdict on GGGACCAUCCUGUUCUUCATT against KCNK12 in this test?
active

Returns: the outcome recorded for UGGUGUACACUGUUACUCATT against LOC158381 in this assay.
inactive

// param item: GGAUGUGGUAGUACAGAAATT against PSMD2 ; yields the recorded call
active

Call for entry GAUGUAAACCCUGAACUAATT against CSRP2 :
inactive

Name the outcome recorded for GCAAUUUCUUGUUUCGUUATT against SLC9A6 in the assay.
inactive

Would you mind telling me which call this test gave GGGAAUUACCAGUUACGGATT against TMPRSS12 ?
inactive

Please share the test call associated with CCGCUUGACUAUGAGCUCATT against TTC7A .
inactive

So what was the verdict on CGAGUACUGUCUCAAGGUATT against TTC9B in this test?
inactive

Lab log entry: AGAACAUCCUGAUAGACCUTT against PIM2 — outcome as called in the assay?
inactive

Name the outcome recorded for GGGACUAGCUCUUCGCAUATT against PTGER3 in the assay.
inactive

Hello, I am checking results. What call was entered for GCGGCAAGGGUUUCAAGCATT against FIZ1 ?
inactive

Fill in: this test's call for GGAUCGCACUCAUGUGGAATT against A4GALT is ___
inactive

// param item: CGACAUUGGUGACCCUCUUTT against DDOST ; yields the recorded call
inactive

How was CCCAGUCUGUGAAACCGAATT against JMJD3 classified in this test?
inactive

Recorded test outcome, item CGGAAAGUACUUAAACGGATT against PIAS4
inactive

# lookup: test call for GAGCAUUUGUGCGCAAGUUTT against NRP2
inactive

Hi team, can someone confirm the assay call for CAACUUCCACUGUUUCCGATT against RRAGC ?
inactive

###

Kindly state median seed-adjusted z-score for each of the entries shown.
# PROTOCOL_DESCRIPTION: Novel Modifiers of Survival Motor Neuron (SMN) Protein: Gene Identification via Genome-wide siRNA Screen;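 further: luminescence tracks full-length SMN protein made from the SMN2 reporter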
# SETTINGS: HEK293T SMN2-luciferase reporter, siRNA knockdown, 72 h; actives lie on both sides
# Procedure: Spinal muscular atrophy (SMA) is the most common neuromuscular autosomal recessive disorder and one of the leading genetic causes of infant death. […] Briefly, 1 pmol of each siRNA was spotted to a well of a 384-well plate (Corning, Corning, NY) and 20 microL of serum-free DMEM containing […] of Lipofectamine RNAiMax (Life Technologies, Carlsbad, CA) was then added to each well. […] Raw luminescence reads were normalized to Ambion(R) Silencer(R) Negative Control #2 siRNA, then log10 transformed. […]
The whole screen tested about 31,000 sequences, of which about 1,400 (4.5%) were called active. This is one part of a sample in which actives are shown more often than they occur.
No unit in the answer, please; the number alone is enough.

In one line, give reported median seed-adjusted z-score of the entry GGAGUUAGCACUAACAUAATT against NUP98 .
0.168

# return recorded median seed-adjusted z-score for input GGCUGUUGGUAACCUGAGATT against TF
0.192

Return median seed-adjusted z-score for the following sequence: CAAGAAUUCCGAUUUCCAATT against GNGT2
-0.289

Give recorded median seed-adjusted z-score. GGUCCUCAUUGAAAACGAATT against BTBD11
-0.00434

Please give measured median seed-adjusted z-score of the following entry: GGAGUUCAUCAAUAUGAAUTT against MLF1
0.258

Give reported median seed-adjusted z-score value for GGAAGCGAAUACUACUAUUTT against ST6GALNAC3
-0.205

Specify median seed-adjusted z-score for GGAUAGUUUUUCGAAUUAATT against MYO9A and stop.
-0.567

For the sequence CAACGACAGAACUAACAGATT against SENP6 , give its measured median seed-adjusted z-score value.
-1.03

Return median seed-adjusted z-score for the following sequence: GCAUUGGUCUAGAGCUUUATT against SCPEP1
-0.99

Identify measured median seed-adjusted z-score associated with GGAGCGAAAUGUUCAGGUUTT against PSPH
-0.518

Quote median seed-adjusted z-score reported for CCUGCCCAGAGAUACGAAATT against SMURF1 please.
-1.4

Annotate the sequence GCAACUUGUGAAUCUAGGATT against VCAM1 with its measured median seed-adjusted z-score.
0.19

###

# PROTOCOL_DESCRIPTION: Novel Modifiers of Survival Motor Neuron (SMN) Protein: Gene Identification via Genome-wide siRNA Screen;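 further: luminescence tracks full-length SMN protein made from the SMN2 reporter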
# SETTINGS: HEK293T SMN2-luciferase reporter, siRNA knockdown, 72 h; actives lie on both sides
# Protocol: Spinal muscular atrophy (SMA) is the most common neuromuscular autosomal recessive disorder and one of the leading genetic causes of infant death. […] Briefly, 1 pmol of each siRNA was spotted to a well of a 384-well plate (Corning, Corning, NY) and 20 microL of serum-free DMEM containing […] of Lipofectamine RNAiMax (Life Technologies, Carlsbad, CA) was then added to each well. […] Raw luminescence reads were normalized to Ambion(R) Silencer(R) Negative Control #2 siRNA, then log10 transformed. […]
Out of some 31,000 sequences screened, about 1,400 (4.5%) were called active. The sample as a whole holds a higher share of actives than the screen did.
Kindly supply the reported median seed-adjusted z-score values for the records listed here.
Respond with the number and no other words.

Provide only the value of recorded median seed-adjusted z-score for GGAGAGAGCGUGUCCUACATT against SIRPA
-0.153

# return recorded median seed-adjusted z-score for entry AGAGAAUCUCGAGGAUAUATT against ZNF74
1.17

Given GCUCUGUAAUAGUCGACUATT against TOPBP1 , respond with its median seed-adjusted z-score.
0.0888

Given the sequence GGACUUUUACACCACCUUUTT against NRXN2 , write its reported median seed-adjusted z-score.
-0.485

Please give the documented median seed-adjusted z-score of CUCUUAUGUUGGAUAUGUATT against USP14
0

Give median seed-adjusted z-score for CUAUAACUGUUCGUGCUUATT against USP47
0.3

Output measured median seed-adjusted z-score for this item: GGACUAAAACUUUAAACUATT against POU4F2
1.46

// fetch median seed-adjusted z-score given entry GCCGUAUAAGUGUCAAGCATT against ZNF57
0

Supply recorded median seed-adjusted z-score for GCCUCAGUUUGAAAUUGUUTT against TBRG1 here.
-1.47

Report median seed-adjusted z-score for GAACAGUCCCUGGUUCCCATT against ECSIT
-0.116

// Input: CCCUGUCUGUGAAGCAUGATT against TXNDC2 . Output its median seed-adjusted z-score only.
-1.29

Identify median seed-adjusted z-score associated with the sequence AGACCUGCGUGGUGCACUATT against FKBP1A
0.113

Return value of median seed-adjusted z-score for input AGGGCUUGUUUGACAACUUTT against CHTF18 , no commentary.
0.371

Look up and state reported median seed-adjusted z-score for GCUAUACGGUUGACAACGATT against ISLR
0.00807

Answer with the recorded median seed-adjusted z-score of GCAGCUACAGGUCAUCUCATT against DGAT2 only.
0.195

Please list median seed-adjusted z-score recorded for the sequence CAGUGGAUAUAUCCAGUCATT against RAB20
-0.334

Give me measured median seed-adjusted z-score, please, for this sequence: CGAUGUCAGUUUCUAGUAATT against USP42
-0.0125

Entry GAGAUAUUUGAGUCGUUAATT against GBP7 needs its median seed-adjusted z-score filled in; supply it.
0

Provide median seed-adjusted z-score value for the following sequence: GCAUCUAAUACUUAUGGAATT against MS4A4A
0.296

Please report median seed-adjusted z-score for the following sequence: GGCUAUGUGCGGGAGUAUATT against PI4KA
0

Report measured median seed-adjusted z-score; entry is CUCUAACUAUGAUCUCGUUTT against CDS1
0.0208

Answer with the recorded median seed-adjusted z-score for the sequence listed here: CUCUCUUCGUAGAUCAAGATT against SFRS7
0.44

State, in one line, measured median seed-adjusted z-score of CUAUGGGUAUGACUACUUUTT against BPHL
-0.161

Supply reported median seed-adjusted z-score belonging to this sequence: CUACAGCCUAUAUAUGAAATT against FCRL1
-0.873

Output median seed-adjusted z-score of UGAUAUUGCUUAGUCCAUUTT against PRLHR
0
